Consider the following binders; for each one, report its Kd.
- system.name: T1, recombinant cynomolgus monkey PD-L1 with a C-terminal mouse IgG2a Fc tag (cynomolgus monkey (Macaca fascicularis))
- T1 construct: also called MfPD-L1-mFc; monkey PD-L1-mFc
- assay.explanation: SPR (Biacore), mAb captured, 25C
- Experimental: Binding association and dissociation rate constants (kₐ and kd, respectively), equilibrium dissociation constants and dissociation half-lives (KD and t_{1/2}, respectively) of antigen binding to purified anti-PD-L1 monoclonal antibodies were determined using a real-time surface plasmon resonance biosensor assay on a Biacore 4000 instrument. […]
Numbers only, in nM.

# annotated cases, reported Kd shown
binder	reported.measurement
H1H8314N (antibody, human IgG1, V domains shown) VH: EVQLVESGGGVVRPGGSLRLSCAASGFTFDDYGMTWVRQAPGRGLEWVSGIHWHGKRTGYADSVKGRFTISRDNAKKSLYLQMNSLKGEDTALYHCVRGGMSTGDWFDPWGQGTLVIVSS VL: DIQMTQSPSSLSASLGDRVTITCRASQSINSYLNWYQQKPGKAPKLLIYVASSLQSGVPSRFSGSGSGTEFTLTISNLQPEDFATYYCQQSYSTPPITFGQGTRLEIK	0.0263
H1H9336P (antibody, human IgG1, V domains shown) VH: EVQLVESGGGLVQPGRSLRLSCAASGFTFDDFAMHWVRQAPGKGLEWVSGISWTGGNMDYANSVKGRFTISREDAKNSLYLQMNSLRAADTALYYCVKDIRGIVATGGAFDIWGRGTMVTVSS VL: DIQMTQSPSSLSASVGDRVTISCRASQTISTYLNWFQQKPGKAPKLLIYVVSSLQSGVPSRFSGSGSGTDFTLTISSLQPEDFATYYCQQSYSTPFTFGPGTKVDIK	0.0622
H1H8323N (antibody, human IgG1, V domains shown) VH: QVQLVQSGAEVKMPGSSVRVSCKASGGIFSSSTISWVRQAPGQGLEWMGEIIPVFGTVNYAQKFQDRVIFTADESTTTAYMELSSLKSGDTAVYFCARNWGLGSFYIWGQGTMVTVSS VL: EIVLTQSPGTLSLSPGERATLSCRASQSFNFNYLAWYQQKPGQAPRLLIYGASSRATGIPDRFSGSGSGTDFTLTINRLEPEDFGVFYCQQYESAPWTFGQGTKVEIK	0.0231

In the following, a different binder is considered.
Exercise: Fill in reported Kd for this entry: H1H9329P (antibody, human IgG1, V domains shown) VH: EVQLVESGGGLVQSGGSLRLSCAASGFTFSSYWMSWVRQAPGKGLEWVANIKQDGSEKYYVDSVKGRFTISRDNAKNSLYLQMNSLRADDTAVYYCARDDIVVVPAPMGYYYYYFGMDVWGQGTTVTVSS VL: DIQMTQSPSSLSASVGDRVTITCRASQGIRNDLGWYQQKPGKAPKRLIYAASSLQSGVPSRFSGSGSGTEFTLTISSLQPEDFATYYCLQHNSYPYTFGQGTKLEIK
Key: 0.386
